- Assayed System: MRCKα (Homo sapiens, UniProt Q5VT25)
- Sequence (Q5VT25 whole entry): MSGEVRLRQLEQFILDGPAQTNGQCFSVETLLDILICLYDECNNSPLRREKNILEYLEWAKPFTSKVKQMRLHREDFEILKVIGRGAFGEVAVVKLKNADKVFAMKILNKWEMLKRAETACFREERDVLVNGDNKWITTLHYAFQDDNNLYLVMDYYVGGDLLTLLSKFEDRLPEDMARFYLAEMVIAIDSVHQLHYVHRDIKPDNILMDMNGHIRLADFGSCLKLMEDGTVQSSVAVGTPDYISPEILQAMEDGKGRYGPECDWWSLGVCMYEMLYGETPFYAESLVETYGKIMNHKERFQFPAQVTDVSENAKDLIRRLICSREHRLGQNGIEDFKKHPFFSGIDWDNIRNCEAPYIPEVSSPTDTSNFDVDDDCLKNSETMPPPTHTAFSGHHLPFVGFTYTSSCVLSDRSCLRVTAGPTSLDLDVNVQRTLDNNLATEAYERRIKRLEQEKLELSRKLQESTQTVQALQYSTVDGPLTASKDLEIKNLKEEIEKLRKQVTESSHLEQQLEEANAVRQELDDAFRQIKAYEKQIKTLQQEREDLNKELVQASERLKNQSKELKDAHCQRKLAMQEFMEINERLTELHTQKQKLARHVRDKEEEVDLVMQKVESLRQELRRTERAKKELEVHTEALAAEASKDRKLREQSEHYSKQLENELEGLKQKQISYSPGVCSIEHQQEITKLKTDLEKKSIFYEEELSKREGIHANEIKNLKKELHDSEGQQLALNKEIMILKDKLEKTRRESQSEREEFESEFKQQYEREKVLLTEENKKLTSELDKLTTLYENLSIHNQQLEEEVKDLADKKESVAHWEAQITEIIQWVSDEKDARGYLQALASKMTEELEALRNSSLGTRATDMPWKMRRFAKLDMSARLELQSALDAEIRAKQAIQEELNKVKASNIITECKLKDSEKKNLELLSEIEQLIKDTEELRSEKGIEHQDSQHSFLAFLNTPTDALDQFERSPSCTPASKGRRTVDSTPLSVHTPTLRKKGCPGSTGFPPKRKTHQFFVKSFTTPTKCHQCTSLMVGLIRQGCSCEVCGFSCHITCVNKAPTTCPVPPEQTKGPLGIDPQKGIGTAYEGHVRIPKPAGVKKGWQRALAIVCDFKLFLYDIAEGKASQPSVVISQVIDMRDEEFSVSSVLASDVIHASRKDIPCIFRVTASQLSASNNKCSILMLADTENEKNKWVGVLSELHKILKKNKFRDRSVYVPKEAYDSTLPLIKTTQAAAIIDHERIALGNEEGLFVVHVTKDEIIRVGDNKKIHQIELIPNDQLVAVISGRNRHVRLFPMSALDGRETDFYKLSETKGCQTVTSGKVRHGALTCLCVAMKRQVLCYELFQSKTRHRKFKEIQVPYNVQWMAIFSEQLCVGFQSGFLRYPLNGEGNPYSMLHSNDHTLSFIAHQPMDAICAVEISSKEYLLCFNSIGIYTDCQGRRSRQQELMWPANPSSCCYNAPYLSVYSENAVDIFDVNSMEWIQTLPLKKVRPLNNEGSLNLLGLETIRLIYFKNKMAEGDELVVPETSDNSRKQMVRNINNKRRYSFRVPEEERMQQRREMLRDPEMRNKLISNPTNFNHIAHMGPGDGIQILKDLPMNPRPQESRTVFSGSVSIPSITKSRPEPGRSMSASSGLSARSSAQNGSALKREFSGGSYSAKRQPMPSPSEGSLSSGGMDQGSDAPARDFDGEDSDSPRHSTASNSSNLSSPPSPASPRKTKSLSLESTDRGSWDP
Result Type: IC50 (nM)

[
  {
    "Structure As Smiles": "NC(=O)Nc1sc(-c2ccc(F)cc2)cc1C(N)=O",
    "Value Units": "nM",
    "Measured Value": 1040
  }
]

----------
Reported Inhibition at 30 µM (%) values follow for various compounds
- Assayed System: MRCKβ (Homo sapiens)
- Construct: purchased Millipore
- Method Summary: IMAP fluorescence polarization in vitro kinase assay, MRCKβ
- Type: biochemical
- Conditions: MRCKβ in vitro kinase assay, 30 µM inhibitor, ATP at enzyme Km (0.7 µM)

[
  {
    "Compound": "CCn1cnc2c(Nc3cccc(Cl)c3)nc(N[C@H]3CCCC[C@H]3N)nc21 [Cdk1 Inhibitor, CGP74514A]",
    "Inhibition at 30 µM (%)": "100%"
  },
  {
    "Compound": "O=C1Nc2ccc3ncsc3c2/C1=C/c1cnc[nH]1",
    "Inhibition at 30 µM (%)": "100.5%"
  },
  {
    "Compound": "C[C@@H](N)[C@H]1CC[C@H](C(=O)Nc2ccncc2)CC1",
    "Inhibition at 30 µM (%)": "96.6%"
  },
  {
    "Compound": "COc1ccc2c(c1)c(C1=C(c3c[nH]c4ccccc34)C(=O)NC1=O)cn2CCCN(C)C",
    "Inhibition at 30 µM (%)": "65.1%"
  },
  {
    "Compound": "CN(C)C[C@H]1CCn2c(c(C3=C(c4cn(C)c5ccccc45)C(=O)NC3=O)c3ccccc32)C1",
    "Inhibition at 30 µM (%)": "68.2%"
  },
  {
    "Compound": "COC(=O)[C@@]1(O)C[C@H]2O[C@]1(C)n1c3ccccc3c3c4c(c5c6ccccc6n2c5c31)C(=O)NC4 [K-252a, Nocardiopsis sp., K-252a]",
    "Inhibition at 30 µM (%)": "98.4%"
  },
  {
    "Compound": "O=S(=O)(NCCNC/C=C/c1ccc(Br)cc1)c1cccc2cnccc12",
    "Inhibition at 30 µM (%)": "99.1%"
  },
  {
    "Compound": "N#CCCc1ccc2c(c1)-c1[nH]c3ccc([N+](=O)[O-])cc3c1CC(=O)N2",
    "Inhibition at 30 µM (%)": "94.8%"
  }
]

----------
- Assayed System: MRCKβ (Homo sapiens, UniProt Q9Y5S2)
- Construct: purchased Millipore
- Sequence (Q9Y5S2 whole entry): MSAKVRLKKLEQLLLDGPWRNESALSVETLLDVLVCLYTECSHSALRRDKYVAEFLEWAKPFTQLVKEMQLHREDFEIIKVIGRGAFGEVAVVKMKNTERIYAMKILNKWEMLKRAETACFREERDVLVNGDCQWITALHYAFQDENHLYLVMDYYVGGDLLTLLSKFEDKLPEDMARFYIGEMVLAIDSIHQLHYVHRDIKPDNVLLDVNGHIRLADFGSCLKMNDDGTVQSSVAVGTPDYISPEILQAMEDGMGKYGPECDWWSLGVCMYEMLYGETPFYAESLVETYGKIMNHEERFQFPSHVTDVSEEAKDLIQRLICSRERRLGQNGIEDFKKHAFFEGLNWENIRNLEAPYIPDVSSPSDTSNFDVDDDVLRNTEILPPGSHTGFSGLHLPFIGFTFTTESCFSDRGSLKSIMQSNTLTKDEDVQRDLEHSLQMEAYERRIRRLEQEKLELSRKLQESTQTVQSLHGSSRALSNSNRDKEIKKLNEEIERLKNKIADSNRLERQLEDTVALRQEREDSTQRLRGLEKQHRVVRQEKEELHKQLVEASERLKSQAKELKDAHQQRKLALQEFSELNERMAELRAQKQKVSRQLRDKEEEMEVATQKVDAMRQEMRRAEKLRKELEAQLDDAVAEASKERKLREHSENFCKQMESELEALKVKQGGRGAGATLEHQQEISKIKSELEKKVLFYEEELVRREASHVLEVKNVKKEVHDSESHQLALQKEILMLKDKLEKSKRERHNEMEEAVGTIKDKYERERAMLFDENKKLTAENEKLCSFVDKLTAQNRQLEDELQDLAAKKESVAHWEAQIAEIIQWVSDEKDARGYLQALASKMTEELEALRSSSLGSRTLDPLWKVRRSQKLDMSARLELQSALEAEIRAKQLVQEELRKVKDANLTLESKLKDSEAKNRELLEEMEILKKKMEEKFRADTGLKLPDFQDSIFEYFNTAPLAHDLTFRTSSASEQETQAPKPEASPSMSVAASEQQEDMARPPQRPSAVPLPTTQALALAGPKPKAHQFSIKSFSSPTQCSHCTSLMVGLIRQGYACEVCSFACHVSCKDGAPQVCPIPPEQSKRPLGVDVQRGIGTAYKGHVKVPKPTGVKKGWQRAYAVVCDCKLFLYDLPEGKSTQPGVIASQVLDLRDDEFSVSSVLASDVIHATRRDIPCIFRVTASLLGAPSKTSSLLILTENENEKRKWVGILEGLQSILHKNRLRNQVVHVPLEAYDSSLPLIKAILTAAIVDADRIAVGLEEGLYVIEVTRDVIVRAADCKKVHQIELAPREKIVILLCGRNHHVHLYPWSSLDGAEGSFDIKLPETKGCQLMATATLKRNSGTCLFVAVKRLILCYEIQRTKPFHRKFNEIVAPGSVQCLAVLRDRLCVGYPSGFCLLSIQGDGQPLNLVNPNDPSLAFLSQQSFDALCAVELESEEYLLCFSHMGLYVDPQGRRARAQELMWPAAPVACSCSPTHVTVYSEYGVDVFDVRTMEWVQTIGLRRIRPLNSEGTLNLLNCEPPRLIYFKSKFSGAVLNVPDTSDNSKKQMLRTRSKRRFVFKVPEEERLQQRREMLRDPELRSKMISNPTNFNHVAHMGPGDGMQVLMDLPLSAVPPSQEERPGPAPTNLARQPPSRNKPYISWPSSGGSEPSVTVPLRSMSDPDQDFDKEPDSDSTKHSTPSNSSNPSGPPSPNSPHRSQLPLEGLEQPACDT
- Method Summary: IMAP fluorescence polarization in vitro kinase assay, MRCKβ
- Assay type: biochemical
- Conditions: MRCKβ in vitro kinase assay, 3 µM inhibitor, ATP at enzyme Km (0.7 µM)

[
  {
    "Compound": "CN(C)CCCn1cc(C2=C(c3c[nH]c4ccccc34)C(=O)NC2=O)c2ccccc21 [Bisindolylmaleimide I]",
    "Inhibition at 3 µM (%)": "87.9%"
  },
  {
    "Compound": "CN(C)C[C@H]1CCn2c(c(C3=C(c4cn(C)c5ccccc45)C(=O)NC3=O)c3ccccc32)C1 [Ro-32-0432]",
    "Inhibition at 3 µM (%)": "85.2%"
  },
  {
    "Compound": "O=C1Nc2ccc3ncsc3c2/C1=C/c1cnc[nH]1 [PKR Inhibitor]",
    "Inhibition at 3 µM (%)": "80.1%"
  },
  {
    "Compound": "CCn1cnc2c(Nc3cccc(Cl)c3)nc(N[C@H]3CCCC[C@H]3N)nc21 [Cdk1 Inhibitor, CGP74514A]",
    "Inhibition at 3 µM (%)": "87.2%"
  },
  {
    "Compound": "C[C@@H](N)[C@H]1CC[C@H](C(=O)Nc2ccncc2)CC1 [Y-27632]",
    "Inhibition at 3 µM (%)": "83.5%"
  },
  {
    "Compound": "COC(=O)[C@@]1(O)C[C@H]2O[C@]1(C)n1c3ccccc3c3c4c(c5c6ccccc6n2c5c31)C(=O)NC4 [K-252a, Nocardiopsis sp., K-252a]",
    "Inhibition at 3 µM (%)": "87.3%"
  },
  {
    "Compound": "N#CCCc1ccc2c(c1)-c1[nH]c3ccc([N+](=O)[O-])cc3c1CC(=O)N2 [Alsterpaullone, 2-Cyanoethyl]",
    "Inhibition at 3 µM (%)": "98.4%"
  },
  {
    "Compound": "O=S(=O)(NCCNC/C=C/c1ccc(Br)cc1)c1cccc2cnccc12 [H-89]",
    "Inhibition at 3 µM (%)": "79.3%"
  },
  {
    "Compound": "COc1ccc2c(c1)c(C1=C(c3c[nH]c4ccccc34)C(=O)NC1=O)cn2CCCN(C)C [Gö 6983]",
    "Inhibition at 3 µM (%)": "88.6%"
  }
]
